system: HCT-15 colon; assay: NCI tumour cell line growth inhibition, 48 h
TGI listing for selected compounds.

{"compound": "COc1c(-c2nc3nc(N4CCN(C)CC4)ccc3[nH]2)cc(OC)c2c1nc(COC(C)=O)n2C", "assayed_system": "HCT-15 colon", "TGI": "> 100 µM"}
{"compound": "C=C(NC(=O)C(=C)NC(=O)c1csc(C2=NC3c4csc(n4)C4NC(=O)c5csc(n5)C(C(C)(O)C(C)O)NC(=O)C5CSC(=N5)/C(=C/C)NC(=O)C(C(C)O)NC(=O)c5csc(n5)C3(CC2)NC(=O)C(C)NC(=O)C(=C)NC(=O)C(C)NC(=O)C(C(C)CC)NC2C=Cc3c(C(C)O)cc(nc3C2O)C(=O)OC4C)n1)C(N)=O (centres undefined)", "assayed_system": "HCT-15 colon", "TGI": "> 34 µM"}
{"compound": "CCOC(=O)c1cc2c(cc1Cl)SC(=Nc1ccccc1)N(S(=O)(=O)c1ccc(Cl)cc1)S2(=O)=O", "assayed_system": "HCT-15 colon", "TGI": "21.9 µM"}
{"compound": "CC1=C(C(=O)Nc2ccccc2)C(c2cccc3ccccc23)C(C(=O)Nc2ccccc2)=C(C)N1", "assayed_system": "HCT-15 colon", "TGI": "30.5 µM"}
{"compound": "Cc1cc2c(cc1Cl)S/C(=C/C(=O)O)C(Nc1ccc3ncsc3c1)=NS2(=O)=O", "assayed_system": "HCT-15 colon", "TGI": "> 65.5 µM"}
{"compound": "COc1ccc(C2C(C#N)=C(S)N(C3OC(COC(C)=O)C(OC(C)=O)C(OC(C)=O)C3OC(C)=O)C(c3ccccc3)=C2C(C)=O)cc1 (centres undefined)", "assayed_system": "HCT-15 colon", "TGI": "> 100 µM"}
{"compound": "CC1/C(=N\\O)CC(c2ccccc2)N(C)C1c1ccccc1 (centres undefined)", "assayed_system": "HCT-15 colon", "TGI": "> 100 µM"}
{"compound": "CC(=O)Oc1c2c(c3n(c1=O)CCCC3)C(=O)N(c1ccccc1)C2=O", "assayed_system": "HCT-15 colon", "TGI": "> 100 µM"}
{"compound": "ClC/C=C/COC1CCCCO1 (centres undefined)", "assayed_system": "HCT-15 colon", "TGI": "> 100 µM"}
{"compound": "CCc1ccc(CCC(=O)Nc2ncc(Cc3ccc(Cl)cc3)s2)o1", "assayed_system": "HCT-15 colon", "TGI": "> 100 µM"}
{"compound": "CC(=O)Oc1ccc2c(c1)CC[C@@H]1C2[C@@H](O[N+](=O)[O-])C[C@@]2(C)C1CC[C@@H]2O[N+](=O)[O-] (some centres undefined)", "assayed_system": "HCT-15 colon", "TGI": "28.1 µM"}
{"compound": "CC1=C(c2ccccc2)C(O)(c2ccccc2)C(C)C1=O (centres undefined)", "assayed_system": "HCT-15 colon", "TGI": "> 100 µM"}
{"compound": "Cc1oc2c(c1C)S(=O)(=O)C(C#N)=C(N(C)C)N2", "assayed_system": "HCT-15 colon", "TGI": "> 100 µM"}
{"compound": "CC(=O)Nc1c(Nc2ccccc2)[nH]c(C)nc1=S", "assayed_system": "HCT-15 colon", "TGI": "> 100 µM"}
{"compound": "Nc1[nH]nc2nc3ccccc3nc12", "assayed_system": "HCT-15 colon", "TGI": "> 100 µM"}
{"compound": "O=C(CC1OC(O)C(Cl)=C1Cl)c1cccnc1 (centres undefined)", "assayed_system": "HCT-15 colon", "TGI": "> 56.8 µM"}
{"compound": "Nc1ncn2c(n1)nc1ccccc12", "assayed_system": "HCT-15 colon", "TGI": "> 100 µM"}
{"compound": "Cc1ccc(C2=C(C#N)C(N)OC3=C2COc2ccccc23)cc1 (centres undefined)", "assayed_system": "HCT-15 colon", "TGI": "> 100 µM"}
{"compound": "CCN(Cc1ccccc1)C1CCN(Cc2cc(Br)ccc2O)CC1", "assayed_system": "HCT-15 colon", "TGI": "> 100 µM"}
